Test system: DU-145 prostate
Assay: NCI tumour cell line growth inhibition, 48 h
Assay Metric: TGI

Completed entries (count: 6):
1. CC(C)(C)C1=C(Br)C(O)(C(C)(C)C)OP1(=O)c1ccccc1 (centres undefined)
> 100 µM
2. CC(=O)OCC1OC(n2c(C)c(C)c(C)c(C#N)c2=S)C(OC(C)=O)C(OC(C)=O)C1OC(C)=O (centres undefined)
> 100 µM
3. O=C1/C(=C/c2cccc3ccccc23)CCc2ccc([N+](=O)[O-])cc21
> 100 µM
4. CC1=CCC[C@H]2[C@](C)(CC3=CC(=O)C(SCC(C)C)=CC3=O)[C@@H](C)CC[C@]12C
30.9 µM
5. CCCCCCCCCCCCC(O)c1ccco1 (centres undefined)
35.1 µM
6. CCN(CC)CCCC(C)Nc1cc(-c2cccc(OC(F)(F)F)c2)nc2ccc(N3CCCC3)cc12 (centres undefined)
13.6 µM

What measured TGI goes with CN1Cc2ccccc2/C=C\c2ccccc21 ? > 100 µM

What measured TGI goes with C1CN(c2nnc(N3CCC3)nn2)C1 ? > 100 µM

What measured TGI goes with COc1cccc(C2c3cc4c(cc3OC(Nc3ccccc3)C2C)OCO4)c1O (centres undefined) ? > 53.9 µM

* * *

The following compounds are listed with their measured TGI values.
System: NCI-H226 lung
Assay: NCI tumour cell line growth inhibition, 48 h

Completed entries (count: 10):
1. Cc1cc(-c2nc3cccc(O)c3s2)ccc1N
> 100 µM
2. CCN(CC)CC1CCCCN1CC(=O)N1CC(C)C(=O)Nc2ccccc21 (stereo not drawn)
> 100 µM
3. COc1ccc2cc(C(C)C(=O)N3C(=O)OCC3(C)C)ccc2c1 (stereo not drawn)
> 100 µM
4. COCCOc1cc(C)cc(/C=C(C)/C=C/C2=C(C)CCCC2(C)C)n1
> 100 µM
5. COc1cc(N(CCC#N)CCC#N)ccc1/C=N\NC(=O)c1ccc(C)cc1
> 100 µM
6. c1ccc(OCCC[P+](c2ccccc2)(c2ccccc2)c2ccccc2)cc1
30.5 µM
7. O=C(C(=O)n1ncc(Cl)c(Cl)c1=O)n1ncc(Cl)c(Cl)c1=O
> 100 µM
8. S=C1SC(=Nc2ccccc2)C(=Nc2ccccc2)N1c1ccc2ccccc2c1
> 100 µM
9. NCCSCCC(=O)O
> 100 µM
10. NC1c2ccccc2Nc2ccccc21
27.9 µM

What measured TGI goes with COc1ccccc1C1C(C#N)=C(N)Oc2n[nH]c(C)c21 (stereo not drawn) ? > 100 µM

What measured TGI goes with Clc1ccc(C2=CCN3CC=C(c4ccc(Cl)cc4)C23)cc1 ? 43.2 µM

What measured TGI goes with COc1ccccc1NC(=O)C1=C(C)NC(C)=C(C(=O)Nc2ccccc2OC)C1/C=C/c1ccccc1 ? > 100 µM

* * *

The following compounds are listed with their measured log10 of TGI values.
System: A498 renal
Assay: NCI tumour cell line growth inhibition, 48 h
Log scale reminder: TGI in µM, then log10 taken.

1) COc1ccccc1S(=O)(=O)Nc1ccc2c3c(cc(CCC(=O)NCCCCNc4cccc5c4C(=O)N(C4CCC(=O)NC4=O)C5=O)cc13)C(=O)N2C (stereo unspecified)
0.78
2) CC1(C)CC[C@]2(C(=O)O)CC[C@]3(C)[C@H](C(=O)C=C4[C@@]5(C)C=C(C#N)C(=O)C(C)(C)[C@@H]5CC[C@]43C)[C@@H]2C1
-0.01
3) O=C(OCc1ccccc1)N1CCNCCNCCN(C(=O)OCc2ccccc2)CCNCC1
1.85

What measured log10 of TGI goes with COc1cc(C2C3=C(COC3=O)N(CCO)c3cc4c(cc32)OCCO4)cc(OC)c1OC (stereo unspecified) ? -0.36

What measured log10 of TGI goes with CS(=O)(=O)OCCCNCCCOS(C)(=O)=O ? 3.56

What measured log10 of TGI goes with COC(=O)c1c(-c2cccs2)oc(-c2cccs2)c1C(=O)OC ? 1.97

What measured log10 of TGI goes with COc1ccc2nc(C(=O)c3ccccc3)c(C)cc2c1 ? 1.01

What measured log10 of TGI goes with CS(=O)(=O)c1ccc(Nc2nc(N[C@H]3CCCC[C@H]3N)nc3cc[nH]c(=O)c23)cc1 ? 1.09

* * *

Test system: MCF7 breast
Experiment: NCI tumour cell line growth inhibition, 48 h
Assay Metric: TGI

Completed entries (count: 2):
1. O=C(Nc1nn[nH]n1)c1nc(-c2ccccc2)cc(=O)[nH]1
> 100 µM
2. NC(N)=NC1C(O)C(O)C(O)C(N=C(N)N)C1O (stereo not drawn)
> 100 µM

Next compound, please.
What measured TGI goes with Cc1cc(-c2c(F)cc3c4nn([C@H]5CC[C@@H](N(C)C)CC5)c(=O)c-4cn(C4CC4)c3c2F)cc(C)n1 ? > 100 µM

* * *

Tested on: SW-620 colon
Assay: NCI tumour cell line growth inhibition, 48 h
The following compounds are listed with their measured TGI values.

Completed entries (count: 8):
1. Cn1c(=O)sc2cc(C(=S)N3CCCCC3)ccc21
> 100 µM
2. CC(C)(C)C1=C(Br)C(O)(C(C)(C)C)OP1(=O)c1ccccc1 (stereo not given)
> 100 µM
3. O=C(O)c1ccccc1C1c2ccccc2Oc2ccccc21
> 100 µM
4. C1CN(c2nnc(N3CCC3)nn2)C1
59 µM
5. O=C(O)CCNS(=O)(=O)c1ccc2ccccc2c1
> 100 µM
6. CNCCCNc1nc2ccccc2c2c(=O)c3cc(OC)ccc3sc12
3.28 µM
7. OC(NN=C1CCCC1)(C(F)(F)Cl)C(F)(F)Cl
> 10 µM
8. N/C(=N\N=C\c1ncccc1O)NO
> 100 µM

# get_value(readout= TGI, system= SW-620 colon) for CC(=O)OC12C=C(C)C(C(C)C1)C1C(=O)N(CCN3CCCCC3)C(=O)C12 (stereo not given) > 50 µM

# get_value(readout= TGI, system= SW-620 colon) for C[C@H](C1CC2(C)OC2(C)C(=O)O1)[C@H]1CC[C@H]2[C@@H]3[C@@H]4O[C@@H]4[C@@]4(O)CC=CC(=O)[C@]4(C)[C@H]3CC[C@]12C (stereo not given in full) > 50 µM

* * *

Tested on: SF-539 CNS
Experiment: NCI tumour cell line growth inhibition, 48 h; in the data active = GI50 below about 0.43 µM; inactive = the rest
API: response.call in active, inactive

Some solved entries appear below for comparison.
1) [N-]=[N+]=NCCCn1c2c(c3ccc([N+](=O)[O-])cc3c1=O)C(=O)c1cc(Br)ccc1-2
inactive
2) CCCCCC(O)C(O)CCC[C@H](O)[C@H]1CC[C@H]([C@H]2CC[C@H]([C@H](O)CCCCCCCCCCCCC3=C[C@H](C)OC3=O)O2)O1 (stereo partly specified)
inactive
3) COc1ccccc1S(=O)(=O)Nc1ccc2c3c(cc(CCC(=O)NCCCCNc4cccc5c4C(=O)N(C4CCC(=O)NC4=O)C5=O)cc13)C(=O)N2C (stereo unspecified)
inactive
4) N#CC1=C(N)Oc2c(ccc3ccccc23)C1c1cc(=O)oc2ccc(Cl)cc12 (stereo unspecified)
inactive
5) Cc1cc(-c2c(F)cc3c4nn([C@H]5CC[C@@H](N(C)C)CC5)c(=O)c-4cn(C4CC4)c3c2F)cc(C)n1
active
6) COc1ccc(C(=O)c2cc(C)c(OC)c(C)c2)c(OC)c1NC(C)=O
active

Recorded test call requested for O=C(Nc1ccccc1I(=O)=O)C1CCCCC1 inactive

Recorded test call requested for COc1ccc(/C=C/c2c(C(=O)/C=C/c3ccc(C(F)(F)F)cc3)c(C)nc3ccccc23)cc1 inactive

Recorded test call requested for CC/C(Cc1ccccc1)=C(\c1ccc(OCCN2CCCC2)cc1)c1ccc(OC(=O)NCc2ccccc2)cc1 inactive

Recorded test call requested for O=C(NCC(F)(F)F)Nc1cccc(-c2cnc3cc(-c4ccc(F)cc4)ccn23)c1 inactive

Recorded test call requested for CC(=O)N1CCN(CCNC(=O)n2cc(-c3ccncc3)c(-c3cc(O)cc(Cl)c3)n2)CC1 inactive

* * *

Test system: K-562 leukemia
Test: NCI tumour cell line growth inhibition, 48 h
The following compounds are listed with their measured TGI values.

Completed entries (count: 5):
1. COC1=CC(C2c3cc4c(cc3[C@@H](Nc3ccc(F)cc3)C3COC(=O)[C@H]23)OCO4)=CC(=O)C1=O (stereo partly specified)
> 49.2 µM
2. Cc1ccc(N=C[N-]c2ccc(C)cc2)cc1.Cc1ccc(N=C[N-]c2ccc(C)cc2)cc1.O=C([O-])C(F)(F)F.O=C([O-])C(F)(F)F.[OH3+].[OH3+].[Rh+2].[Rh+2]
67.1 µM
3. COc1ccc(C(=O)c2cc(C)c(OC)c(C)c2)c(OC)c1NC(C)=O
> 100 µM
4. CC1(C)Oc2ccc3c(=O)cc(-c4ccccc4)oc3c2C1C(=O)O (stereo unspecified)
> 100 µM
5. CN=C1C=CC(=C(c2ccc(N(C)C)cc2)c2ccc(N(C)C)cc2)C=C1
1.1 µM

What measured TGI goes with COc1ccc(-c2cncn2-c2cc(OC)c(OC)c(OC)c2)cc1 ? > 100 µM

What measured TGI goes with O=C(c1ccc(Cl)cc1)N1CCN=C1c1cc2ccccc2c2ccccc12 ? 95.8 µM

What measured TGI goes with Nc1c(S(=O)(=O)O)cc(S(=O)(=O)O)c2ccc(N=Nc3ccc(/C=C/c4ccc(N=Nc5ccc6c(S(=O)(=O)O)cc(S(=O)(=O)O)c(N)c6c5O)cc4S(=O)(=O)O)c(S(=O)(=O)O)c3)c(O)c12 ? > 100 µM

What measured TGI goes with Cc1ncc(COP(=O)(O)O)c(/C=C2\SC(=S)NC2=O)c1O ? > 100 µM

What measured TGI goes with COc1cc2c(c(OC)c1OC)-c1ccc(SC)c(=O)cc1[C@@H](NCc1ccc([N+](=O)[O-])cc1)CC2 ? 37.5 µM
